For each record, write down the corresponding Percent Effect.
test system: Wolbachia pipientis; test: Anti-Wolbachia Cell-Based Screen; type: functional; design: scale not given: in the data most compounds retested in dose-response had high values; conditions: 5 µM
The whole screen tested about 48,000 compounds, of which about 13,000 (27%) showed an effect of 50% or more. The list shows a part of the results.
Answers are plain numbers, in %.

Below, 5 compounds whose answers are already recorded.
stdin: # lookup: Percent Effect of Cc1cnc(N2CCC3(CC2)CC(NC(=O)N(C)C)CO3)nc1 (stereo unspecified)
stdout: 3.12

stdin: # lookup: Percent Effect of CN(C)c1cc(C(=O)N2CCCCC2Cn2cccn2)ccn1 (stereo unspecified)
stdout: 105

stdin: # lookup: Percent Effect of CCNC(=O)[C@@H]1C[C@H](N)CN1c1cc(C(F)(F)F)nc(N(C)C)n1
stdout: -10.07

stdin: # lookup: Percent Effect of CS(=O)(=O)NCC1CCCCN1C(=O)c1ccsc1 (stereo unspecified)
stdout: -1.868

stdin: # lookup: Percent Effect of CCC1CCCCN1C(=O)c1ccnc(N(C)C)c1 (stereo unspecified)
stdout: 113.6

Now look at this one.
stdin: # lookup: Percent Effect of CC(C)c1n[nH]c(C2CN(C(=O)c3ccnc(C4CC4)n3)CCO2)n1 (stereo unspecified)
stdout: 106.2
